Please respond with reported pest or weed control at 20 g/ha for every item in the list.
# Test system: STEME
# method_notes: Pre-emergence herbicidal action against STEME
# Assay type: in vivo, Stellaria media
# details: Stellaria media, 504 h, dosage 20 g/ha
Give bare numbers, in %.

Worked examples follow.
[[record]]
compound = "CCc1c(C(=O)Nc2nnnn2C)ccc(C(F)(F)F)c1C(=O)NC1CC1 [Example 1-273]"
target = "STEME"
result_type = "pest or weed control at 20 g/ha"
numeric_readout = 100

[[record]]
compound = "CCNC(=O)c1c(C(F)F)ccc(C(=O)Nc2nnnn2C)c1SC [Example 1-88]"
target = "STEME"
result_type = "pest or weed control at 20 g/ha"
numeric_readout = 100

[[record]]
compound = "CCNC(=O)c1c(C(F)(F)F)ccc(C(=O)Nc2nnnn2CC)c1Cl [Example 2-130]"
target = "STEME"
result_type = "pest or weed control at 20 g/ha"
numeric_readout = 100


Quick request: pest or weed control at 20 g/ha for each listed item, please.
1. CCNC(=O)c1c(C(F)(F)F)ccc(C(=O)Nc2nnnn2CC)c1Br [Example 2-208]
2. CCNC(=O)c1c(C(F)F)ccc(C(=O)Nc2nnnn2C)c1C [Example 1-45]

1. 100
2. 90

* * *

# System: VIOTR
# method_notes: Pre-emergence herbicidal action against VIOTR
# Type: in vivo, Viola tricolor
# details: dosage 20 g/ha
result_type: Pre-emergence action against VIOTR in % (%)
Numbers only, in %.

[[record]]
compound = "CCNC(=O)c1c(C(F)F)ccc(C(=O)Nc2nnnn2CC)c1OC [Example 2-73]"
unit_symbol = "%"
numeric_readout = 90


Hello, I would appreciate it if you could give Pre-emergence action against VIOTR in % for each entry below.
1. CSc1c(C(=O)Nc2nnnn2C)ccc(C(F)F)c1C(=O)NC(C)C1CC1 (centres unmarked) [Example 1-353]
2. CCn1nnnc1NC(=O)c1ccc(C(F)F)c(C(=O)NCC(F)F)c1SC [Example 2-92]

1. 100
2. 90

# batch size: 2; output Pre-emergence action against VIOTR in % per entry
1. CCn1nnnc1NC(=O)c1ccc(C(F)F)c(C(=O)NC2CC2)c1C [Example 2-46]
2. CCn1nnnc1NC(=O)c1ccc(I)c(C(=O)NC)c1Cl [Example 2-195]

1: 100; 2: 100

Here are 5 compounds. What values of Pre-emergence action against VIOTR in % were reported for them?
1. CCc1c(C(=O)Nc2nnnn2CC)ccc(C(F)(F)F)c1C(=O)NC(C)C1CC1 (centres unmarked) [Example 2-341]
2. Cc1c(C(=O)Nc2nnnn2C)ccc(C(F)(F)F)c1C(=O)NCC(F)F [Example 1-30]
3. CCn1nnnc1NC(=O)c1ccc(C(F)(F)F)c(C(=O)NC(C)C2CC2)c1Br (centres unmarked) [Example 2-213]
4. CNC(=O)c1c(C(F)F)ccc(C(=O)Nc2nnc(C)o2)c1OC [Example 6-49]
5. CCn1nnnc1NC(=O)c1ccc(C(F)F)c(C(=O)NCC(F)F)c1Br [Example 2-230]

1. 90
2. 100
3. 100
4. 80
5. 90

Complete the entry with Pre-emergence action against VIOTR in % for CCn1nnnc1NC(=O)c1ccc(C(F)F)c(C(=O)NCC(F)F)c1C [Example 2-49]
90

* * *

# System: AMARE
# method_notes: Post-emergence herbicidal action against AMARE
# Assay type: in vivo, Amaranthus retroflexus
# details: Amaranthus retroflexus, 504 h, 20 g/ha, visual assessment about 3 weeks after treatment, 100% = plants have died, 0% = like control plants
Could you please report measured pest or weed control at 20 g/ha for the items listed next?
Answers are plain numbers, in %.

Below, each entry is followed by its recorded pest or weed control at 20 g/ha result.
[[record]]
mol = "CCn1nnnc1NC(=O)c1ccc(C(F)(F)F)c(C(=O)NC2CC2)c1C1CC1"
numeric_readout = 100

[[record]]
mol = "Cc1c(C(=O)Nc2nnnn2C)ccc(C(F)(F)F)c1C(=O)NC1COC1"
numeric_readout = 90

[[record]]
mol = "Cn1nnnc1NC(=O)c1ccc(C(F)F)c(C(=O)NCC(F)(F)F)c1Br"
numeric_readout = 90

[[record]]
mol = "Cn1nnnc1NC(=O)c1ccc(C(F)(F)F)c(C(=O)NCC(F)(F)F)c1Cl"
numeric_readout = 100


Kindly consider the entry below.
State measured pest or weed control at 20 g/ha of the compound "CNC(=O)c1c(Cl)ccc(C(=O)Nc2nnnn2C)c1C" with AMARE.
90

* * *

# System: ECHCG
# method_notes: Pre-emergence herbicidal action against ECHCG
# Format: in vivo, Echinochloa crus-galli
# details: 80 g/ha
result_type: Pre-emergence action against ECHCG in % (%)
Answers are plain numbers, in %.

Worked examples follow.
[[record]]
compound = "Cc1c(C(=O)Nc2nnnn2C)ccc(C(F)(F)F)c1C(=O)NC(C)C1CC1 (stereo not shown)"
numeric_readout = 100

[[record]]
compound = "CSc1c(C(=O)Nc2nnnn2C)ccc(C(F)F)c1C(=O)NCC(F)F"
numeric_readout = 100

[[record]]
compound = "Cn1nnnc1NC(=O)c1ccc(C(F)(F)F)c(C(=O)NCC(F)F)c1Br"
numeric_readout = 100

[[record]]
compound = "Cn1nnnc1NC(=O)c1ccc(C(F)F)c(C(=O)NCC2CC2)c1Br"
numeric_readout = 100

[[record]]
compound = "CCn1nnnc1NC(=O)c1ccc(C(F)(F)F)c(C(=O)NCC2CC2)c1C1CC1"
numeric_readout = 100


# batch size: 7; output Pre-emergence action against ECHCG in % per entry
1. CCn1nnnc1NC(=O)c1ccc(C(F)(F)F)c(C(=O)NCC(F)(F)F)c1C
2. CCn1nnnc1NC(=O)c1ccc(C(F)(F)F)c(C(=O)NCC2CC2)c1SC
3. CCc1c(C(=O)Nc2ncnn2C)ccc(C(F)(F)F)c1C(=O)NC1CC1
4. CCn1nnnc1NC(=O)c1ccc(C(F)(F)F)c(C(=O)NC(C)C2CC2)c1Br (stereo not shown)
5. CCCn1nnnc1NC(=O)c1ccc(C(F)(F)F)c(C(=O)NC2CC2)c1CC
6. CCNC(=O)c1c(C(F)F)ccc(C(=O)Nc2nnnn2CC)c1Br
7. CSc1c(C(=O)Nc2nnnn2C)ccc(C(F)(F)F)c1C(=O)NCC(F)F

[100, 100, 80, 90, 80, 100, 100]

* * *

Consider the following molecules; for each one, report its pest or weed control at 20 g/ha.
# System: DIGSA
# method_notes: Pre-emergence herbicidal action against DIGSA
# Type: in vivo, Digitaria sanguinalis
# details: Digitaria sanguinalis, 504 h, dosage 20 g/ha
Answers are plain numbers, in %.

Recorded results for 3 molecules are shown here.
[[record]]
mol = "Cn1nnnc1NC(=O)c1ccc(C(F)(F)F)c(C(=O)NCC(F)(F)F)c1Cl"
target = "DIGSA"
result_type = "pest or weed control at 20 g/ha"
numeric_readout = 90

[[record]]
mol = "Cc1c(C(=O)Nc2nnnn2C)ccc(C(F)F)c1C(=O)NC1CC1"
target = "DIGSA"
result_type = "pest or weed control at 20 g/ha"
numeric_readout = 90

[[record]]
mol = "Cn1nnnc1NC(=O)c1ccc(C(F)F)c(C(=O)NC2CC2)c1C1CC1"
target = "DIGSA"
result_type = "pest or weed control at 20 g/ha"
numeric_readout = 100


Alright, here's another molecule for you.
State measured pest or weed control at 20 g/ha of the molecule "CCc1c(C(=O)Nc2nnnn2C)ccc(C(F)F)c1C(=O)NC" with DIGSA.
100

* * *

Could you please report measured pest or weed control at 5 g/ha for the items listed next?
# Tested on: DIGSA
# method_notes: Post-emergence herbicidal action against DIGSA
# Type: in vivo, Digitaria sanguinalis
# details: Digitaria sanguinalis, 504 h, 5 g/ha
One number for each entry, in %.

[[record]]
mol = "CCn1nnnc1NC(=O)c1ccc(C(F)(F)F)c(C(=O)NC)c1Br"
result_type = "pest or weed control at 5 g/ha"
numeric_readout = 80


Below is a list of molecules. For each, state its recorded pest or weed control at 5 g/ha.
1. CCn1nnnc1NC(=O)c1ccc(C(F)(F)F)c(C(=O)NC2CC2)c1OC
2. Cc1c(C(=O)Nc2nnnn2C)ccc(C(F)(F)F)c1C(=O)NC1COC1
3. Cn1nnnc1NC(=O)c1ccc(Br)c(C(=O)NCC(F)(F)F)c1Cl
4. CCNC(=O)c1c(C(F)F)ccc(C(=O)Nc2nnnn2C)c1CC

1: 100; 2: 80; 3: 90; 4: 90

* * *

# Test system: ECHCG
# method_notes: Pre-emergence herbicidal action against ECHCG
# Format: in vivo, Echinochloa crus-galli
# details: Echinochloa crus-galli, 504 h, 80 g/ha
Assignment: determine reported pest or weed control at 80 g/ha for the given molecules.
Give bare numbers, in %.

Solved entries:
[[record]]
molecule = "CNC(=O)c1c(Cl)ccc(C(=O)Nc2nnnn2C)c1C [Example 1-4]"
result_type = "pest or weed control at 80 g/ha"
numeric_readout = 90

[[record]]
molecule = "CCCNC(=O)c1c(C(F)F)ccc(C(=O)Nc2nnnn2CC)c1C [Example 2-344]"
result_type = "pest or weed control at 80 g/ha"
numeric_readout = 100

[[record]]
molecule = "CCNC(=O)c1c(C(F)(F)F)ccc(C(=O)Nc2nnnn2C)c1C1CC1 [Example 1-287]"
result_type = "pest or weed control at 80 g/ha"
numeric_readout = 90

[[record]]
molecule = "CCNC(=O)c1c(C(F)F)ccc(C(=O)Nc2nnnn2C)c1CC [Example 1-278]"
result_type = "pest or weed control at 80 g/ha"
numeric_readout = 100


Record pest or weed control at 80 g/ha per entry; entries follow.
1. CNC(=O)c1c(C(F)F)ccc(C(=O)Nc2nnnn2C)c1SC [Example 1-87]
2. CCCNC(=O)c1c(C(F)(F)F)ccc(C(=O)Nc2nnnn2C)c1C [Example 1-32]

1. 100
2. 100
